Just for reference, patent US11267802B2 is where these values come from.

tested on: H358; assay: Inhibition assay on tumor cell proliferation (CellTiter-Glo), H358; type: cell-based, Human; conditions: Homo sapiens, NCI-H358; H358 (wild-type EGFR), 72 hours, 10% bovine serum
pIC50: −log10 of the molar value.
Kindly supply the reported pIC50 values for the records listed here.

Ask: Given `C=CC(=O)Nc1cc(Nc2nccc(-n3ccc4ccccc43)n2)c(OC)cc1N(C)CCN1CCCC1` , state its recorded pIC50.
Reply: < 6.00

Ask: What about `C=CC(=O)Nc1cc(Nc2nccc(-n3ccc4cc(OCCOC)ccc43)n2)c(OC)cc1N(C)CCN(C)C` ?
Reply: 6.00 to 7.00

Ask: What about `C=CC(=O)Nc1cc(Nc2nccc(-n3c(=O)n(C(C)C)c4ccccc43)n2)ccc1N(C)CCN(C)C` ?
Reply: 6.00 to 7.00

Ask: What about `C=CC(=O)Nc1cc(Nc2nccc(-n3ccc4ccccc43)n2)c(OC)cc1N1CC[C@H](N(C)C)C1` ?
Reply: < 6.00

Ask: What about `C=CC(=O)Nc1cc(Nc2nccc(-n3c(=O)n(C)c4cc(Cl)ccc43)n2)c(OC)cc1N(C)CCN(C)C` ?
Reply: 6.00 to 7.00

Ask: What about `C=CC(=O)Nc1cc(Nc2ncc(OC)c(-n3c(=O)n(C(C)C)c4ccccc43)n2)c(OC)cc1N(C)CCN(C)C` ?
Reply: < 6.00

Ask: What about `C=CC(=O)Nc1cc(Nc2nccc(-n3ccc4cc([N+](=O)[O-])ccc43)n2)c(OC)cc1N(C)CCN(C)C` ?
Reply: 6.00 to 7.00

Ask: What about `C=CC(=O)Nc1cc(Nc2nccc(-n3c(=O)n(C)c4ccccc43)n2)c(C(C)C)cc1N(C)CCN(C)C` ?
Reply: < 6.00

Ask: What about `C=CC(=O)Nc1cc(Nc2nccc(-n3ccc4c(F)cccc43)n2)c(OC)cc1N(C)CCN(C)C` ?
Reply: 6.00 to 7.00

Ask: What about `C=CC(=O)Nc1cc(Nc2nccc(-n3ccc4nc(Cl)ccc43)n2)c(OC)cc1N(C)CCN(C)C` ?
Reply: 6.00 to 7.00

Ask: What about `C=CC(=O)Nc1cc(Nc2nccc(-n3c(=O)n(C4CC4)c4cc(OC)ccc43)n2)c(OC)cc1N(C)CCN(C)C` ?
Reply: 6.00 to 7.00

Ask: What about `C=CC(=O)Nc1cc(Nc2nccc(-n3c(=O)n(C4CC4)c4cc(C#N)ccc43)n2)c(OC)cc1N(C)CCN(C)C` ?
Reply: 6.00 to 7.00

Ask: What about `C=CC(=O)Nc1cc(Nc2ncc(N(C)C)c(-n3ccc4ccccc43)n2)c(OC)cc1N(C)CCN(C)C` ?
Reply: 6.00 to 7.00

Ask: What about `C=CC(=O)Nc1cc(Nc2nccc(-n3c(=O)n(C)c4ccccc43)n2)ccc1N(C)CCN(C)C` ?
Reply: 6.00 to 7.00

Ask: What about `C=CC(=O)Nc1cc(Nc2ncc(OC)c(-n3ccc4ccccc43)n2)c(OC)cc1N(C)CCN(C)C` ?
Reply: < 6.00

Ask: What about `C=CC(=O)Nc1cc(Nc2nccc(-n3c(=O)n(C4CC4)c4cc(F)ccc43)n2)c(OC)cc1N(C)CCN(C)C` ?
Reply: 6.00 to 7.00

Ask: What about `C=CC(=O)Nc1cc(Nc2ncc(OC)c(-n3c(=O)n(C)c4ccccc43)n2)c(OC)cc1N(C)CCN(C)C` ?
Reply: < 6.00

Ask: What about `C=CC(=O)Nc1cc(Nc2nccc(-n3c(=O)n(CC4CC4)c4cc(F)ccc43)n2)c(OC)cc1N(C)CCN(C)C` ?
Reply: 6.00 to 7.00

Ask: What about `C=CC(=O)Nc1cc(Nc2ncc(C(F)(F)F)c(-n3ccc4ccccc43)n2)c(OC)cc1N(C)CCN(C)C` ?
Reply: 6.00 to 7.00

Ask: What about `C=CC(=O)Nc1cc(Nc2nccc(-n3c(=O)n(C(C)C)c4cc(OC)ccc43)n2)c(OC)cc1N(C)CCN(C)C` ?
Reply: 6.00 to 7.00

Ask: What about `C=CC(=O)Nc1cc(Nc2ncc(C)c(-n3ccc4ccccc43)n2)c(OC)cc1N(C)CCN(C)C` ?
Reply: 6.00 to 7.00
